Hey, just so you know, these numbers are from patent US20250250357A1.

Tested System: T1, human MSLN-R1-his protein (human, UniProt Q13421 296-390)
T1 construct: Region 1 of human mesothelin, made in HEK293E cells, His-tagged; also called human MSLN-R1 protein; hMSLN-R1-his; not shown: His tag
T1 chain: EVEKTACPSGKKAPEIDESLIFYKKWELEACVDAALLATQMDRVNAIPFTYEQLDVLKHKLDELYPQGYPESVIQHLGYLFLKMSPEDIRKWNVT
Experiment Summary: ELISA on coated MSLN-R1; antibody 10 nM
Assign true to entries whose OD450 meets or exceeds 2 OD450; assign false to the rest.

Solved entries (count: 5):
{"Binder": "S009-F8-9.16 (antibody, human IgG1, kappa, V domains shown) VH: EVHLQQSGPVLVKPGASVKMSCKASGYTFTDYFMNWVKQSHGKSLEWIGVINPHNGYVNYNQKFQGRATLTVDKSSSTVYMELNSLTSEDSAVYHCARSAESAWFAYWGQRTLVTVSA VL: DVLMTQTPLSLPVSLGDQVSISCRSSQSIVHVKGNTYLEWYLQKPGQSPELLIYKVSNRFSGVPDRFSGGGSGTDFTLKISRVEPEDLGVYYCFQGSHLPYTFGGGTKLEIKR", "Label": "false"}
{"Binder": "S009-F8-19.21 (antibody, human IgG1, kappa, V domains shown) VH: EFQLQQSGPELVKPGASVKISCKTSGYSFTDYNMNWVKQSNGKSLEWIGVINPNYGTTGYNQKFKGKATLTVDQSSSTAYMQLNSLTSEDSAVYYCARGGYDGEAMDYWGHGTSVTVSS VL: QIVLTQSPAIMSASPGEKVTMTCSASSSVNYMHWYQQKSGTSPKRWIYDTSKLASGVPARFSGSGSGTSYSLTISSMEAEDAATYYCQQWSSYPPTFGGGTKLEIKR", "Label": "true"}
{"Binder": "S009-F8-7.5 (antibody, human IgG1, kappa, V domains shown) VH: DVQLQESGPGLVKPSQSLSLTCSVTGYSITSGYYWNWIRQFPGNKLEWMAYIRYDGSNNYNPSLKNRISIIRDTSKNQFFLRLNSVTTEDTATYYCAKSYYGMDDWGQGISVTVSS VL: DIQMTQSPASLSASVGETVTITCRTSGDIHNYLAWYQQKQGKSPQLLVYKAKTLENGVPSRFTGSGSGTQFSLKIDSLQPEDFGTYYCQHFWTTPYTFGGGTKLEIKR", "Label": "false"}
{"Binder": "S009-F8-4.5 (antibody, human IgG1, kappa, V domains shown) VH: QVQLQQPGAELVKPGASVKLSCKASGYTFTIYWMHWVKQRPGQGLEWIGMIHPNSGNTNYNEKFKSKATLTVDKSSSTAYMQLSSLTSEDSAVYYCSLIHWYFDVWGTGTTVTVSS VL: QIVLTQSPAIMSASPGEKVTMTCSASSSVSYMYWYQQKPGSSPRLLIYDTSNLASGVPVRFSGSGSGTSYSLTISRMEAEDAATYYCQQWSSYPLTFGAGTKLELKR", "Label": "false"}
{"Binder": "S009-F8-13.8 (antibody, human IgG1, kappa, V domains shown) VH: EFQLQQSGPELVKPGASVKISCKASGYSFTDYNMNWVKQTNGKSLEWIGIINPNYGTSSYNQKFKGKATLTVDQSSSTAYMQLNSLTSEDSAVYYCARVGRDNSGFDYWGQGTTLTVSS VL: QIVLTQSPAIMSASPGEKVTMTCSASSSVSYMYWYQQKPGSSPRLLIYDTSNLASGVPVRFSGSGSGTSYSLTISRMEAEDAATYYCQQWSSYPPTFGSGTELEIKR", "Label": "true"}

Decide: OD450 of S009-F8-31.22 (antibody, human IgG1, kappa, V domains shown) VH: EVQLVESGGDLVKPGGSLKLSCAASGFTFSTYGMSWVRQTPDKRLEWVATISSGGSYTYYPDSLKGRFTISRDNAKNTLYLQMSSLKSEDTAMYYCARHEGYYYGKDYWGQGTTLTVSS VL: DIVLTQSPATLSVTPGDSVSLSCRASHSISNNLHWYQQKSHESPRLLIKYASQSISGIPSKFSGSGSGTDFTLSINSVETEDFGMYFCQQTNSWPLTFGAGTKLELKR >= 2 OD450? true

Decide: OD450 of S009-F8-8.22 (antibody, human IgG1, kappa, V domains shown) VH: EVQLQQSGPELVKPGASVKMSCKASGYTFTDYIIHWVKQSHGKSLEWIAYIFPNNGGTGYNQKFRGKATLTVNKSSSTAYMELRSLTSEDSAVYYCARWRLRQYFDVWGTGTTVTVSS VL: DIVMTQSQKFMSTIVGDRVSITCKASQNVGTAVAWYQQKPGQSPKLLIYSASNRYTGVPDRFTGSGSGTDFTLTISNMQSEDLADYFCQQYSSYPLTFGGGTKLEIKR >= 2 OD450? true

Decide: OD450 of S009-F8-27.1 (antibody, human IgG1, kappa, V domains shown) VH: EVQLVESGGGLVKPGGSLKLSCAASGFTFSSYAMSWVRQTPEKRLEWVATISDGGNYTYYPDNVKGRFTISRDNAKNNLYLQMSHLKSEDTAMYYCAGDRGYPYAMDSWGQGTSVTVSS VL: NIMMTQSPSSLAVSAGEKVTMSCKSSQSVLYSSNQKNYLAWYQQKPGQSPKLLIYWASTRESGVPDRFTGSGSGTDFTLTISNVHAEDLAVYYCHQYLSSLTFGAGTKLELKR >= 2 OD450? false

Decide: OD450 of S009-F8-28.23 (antibody, human IgG1, kappa, V domains shown) VH: EVQLVESGGDLVKPGGSLKLSCAASGFTFSSYAMSWVRQTPEKRLEWVATISDGGSYTYYPDNVEGRFTISRDNAKNNLYLQMSHLKSEDTAMYYCAGDRGYSYALDYWGQGTSVTVSS VL: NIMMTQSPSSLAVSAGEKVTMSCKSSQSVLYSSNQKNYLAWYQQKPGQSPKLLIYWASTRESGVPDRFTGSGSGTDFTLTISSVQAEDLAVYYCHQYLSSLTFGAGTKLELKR >= 2 OD450? false
